Tested on: MDA-MB-468
Experiment: drug sensitivity score (DSS), CellTox Green (DSS (AUC-based score)); higher = stronger drug effect (viability inhibition or cytotoxicity); extreme values may be limits of the assay
Conditions: incubation time: 72 h
Measurement name: drug sensitivity score

>>> result("COc1ccc(-c2cc3c(C)nc(N)nc3n([C@H]3CC[C@H](OCCO)CC3)c2=O)cn1")
0
>>> result("CO[C@@H](C(=O)N1Cc2[nH]nc(NC(=O)c3ccc(N4CCN(C)CC4)cc3)c2C1)c1ccccc1 [Danusertib]")
13.7
>>> result("c1cc(CN2CCCNCCNCCCNCC2)ccc1CN1CCCNCCNCCCNCC1 [Plerixafor]")
4.79
>>> result("Cc1ccc(Nc2nccc(N(C)c3ccc4c(C)n(C)nc4c3)n2)cc1S(N)(=O)=O [Pazopanib]")
0

FYI, the data here is from the supplement of paper PMC4862054.
